Test system: HCV-Luc
Assay: HCV-Luc infection assay
Format: cell-based
Details: Hepatitis C virus; Table 6; read-out: EC50
pEC50: −log10 of the molar value.
Please enter Met where pEC50 is greater than or equal to 6, and Not met where it is lower.

| MOL | ANSWER LABEL |
| --- | --- |
| [2H]C([2H])([2H])N1CCC(N(CCc2ccccc2)Cc2ccccc2)CC1 | Not met |
| c1ccc(CCN(Cc2ccccc2)C2CCNCC2)cc1 | Met |
| CCCN1CCC(N(CCc2ccccc2)Cc2ccccc2)CC1 | Met |
| [2H]C([2H])([2H])CN1CCC(N(CCc2ccccc2)Cc2ccccc2)CC1 | Not met |
| CCCCN1CCC(N(CCc2ccccc2)Cc2ccccc2)CC1 | Not met |
| c1ccc(CCN(Cc2ccccc2)C2CCN(Cc3ccccc3)CC2)cc1 | Met |
| COc1cccc(CN2CCC(N(CCc3ccccc3)Cc3ccccc3)CC2)c1 | Not met |

These entries and their values trace back to patent US20170001988A1.
